Would you mind telling me the reported IC50 of each entry?
target: P2X7 receptor (Homo sapiens (Human)); test: P2X7 FLIPR assay: antagonism of BzATP response in 293 HEK cells stably expressing P2X7 receptor; settings: FLIPR fluorescence (Fluo-4), agonist BzATP, 293 HEK cells stably transfected with P2X7 receptor
# number only, unit nM dropped from output

Note down IC50 recorded for Cn1cc(C(CNC(=O)c2cccc(Cl)c2Cl)N2CCC(F)(F)CC2)cn1 (single isomer, unassigned; (+)) [(+)2,3-dichloro-N-[2-(4,4-difluoro-1-piperidyl)-2-(1-methylp]
12

Note down IC50 recorded for O=C(NCC(c1ccc(C(F)(F)F)nc1)N1CCOCC1)c1cccc(Cl)c1Cl (single isomer, unassigned; (-)) [(−)2,3-dichloro-N-[2-morpholino-2-[6-(trifluoromethyl)-3-pyr]
2

Note down IC50 recorded for O=C(NCC(c1cnc(C(F)(F)F)nc1)N1CCC(F)CC1)c1cccc(Cl)c1Cl (single isomer, unassigned; (+)) [(+)2,3-dichloro-N-[2-(4-fluoro-1-piperidyl)-2-[2-(trifluorom]
3.5

====

Target: UniProt:Q99572
Assay: P2X7 FLIPR assay: antagonism of BzATP response in 293 HEK cells stably expressing P2X7 receptor
Conditions: FLIPR fluorescence (Fluo-4), agonist BzATP, 293 HEK cells stably transfected with P2X7 receptor
Description: Cells were plated to cell density of approximately 15,000 cells/well in 384-well assay plates (50 μl/well) with 1.5% low serum media (DMEM, 1.5% BCS, 1% L-glut (2 mM), 1% P/S). […] Compound mixtures (A) were added to assay plates containing cells and placed at room temperature for 30 minutes, then BzATP (B) was added. Fluorescence was read using the Tetra FLIPR® (Molecular Devices, Inc., Sunnyvale, Calif., USA) and IC50 values were calculated by standard methods to determine antagonist activity.
outcome_measure: log10(IC50) (log10 of the value in nM)
Recorded IC50 (log10, nM)

Note down log10(IC50) recorded for O=C(NCC(c1ccc(F)cc1)N1CCC(F)(F)CC1)c1cccc(Cl)c1Cl (stereo not shown)
-0.48

Note down log10(IC50) recorded for O=C(NCC(c1cnc(C(F)(F)F)nc1)N1CCC(F)(F)CC1)c1ccccc1Cl (stereo not shown)
0.45

Note down log10(IC50) recorded for Cc1ncc(C(CNC(=O)c2cccc(Cl)c2Cl)N2CCCCC2C(C)C)cn1 (stereo not shown)
3.28

Note down log10(IC50) recorded for Cc1ncc(C(CNC(=O)c2cccc(OC(F)(F)F)c2Cl)N2CCC(F)(F)CC2)cn1 (single isomer, unassigned; (-)) [(−)2-chloro-N-[2-(4,4-difluoro-1-piperidyl)-2-(2-methylpyrim]
1.60

Note down log10(IC50) recorded for CCc1ncc(C(CNC(=O)c2c(Cl)cccc2Cl)N2CCC(F)(F)CC2)cn1 (single isomer, unassigned; (+)) [(+)2,6-dichloro-N-[2-(4,4-difluoro-1-piperidyl)-2-(2-ethylpy]
1.18

Note down log10(IC50) recorded for O=C(NCC(c1cnc(C(F)(F)F)nc1)N1CCC(F)(F)CC1)c1cccc(F)c1Cl (single isomer, unassigned; (-)) [(−)2-chloro-N-[2-(4,4-difluoro-1-piperidyl)-2-[2-(trifluorom]
0.62

Note down log10(IC50) recorded for O=C(NCC(c1cnc(C(F)(F)F)nc1)N1CCOCC1)c1cccc(Cl)c1Cl (single isomer, unassigned; (-)) [(−)2,3-dichloro-N-[2-morpholino-2-[2-(trifluoromethyl)pyrimi]
0.51

Note down log10(IC50) recorded for COc1ccc(C(CNC(=O)c2cccc(Cl)c2Cl)N2CCOCC2)cc1 (stereo not shown)
1.11

Note down log10(IC50) recorded for O=C(NCC(c1cnc(C(F)(F)F)nc1)N1CCC(F)(F)CC1)c1c(F)cc(Cl)cc1Cl (single isomer, unassigned; (-)) [(−)2,4-dichloro-N-[2-(4,4-difluoro-1-piperidyl)-2-[2-(triflu]
0.81

Note down log10(IC50) recorded for O=C(NCC(c1cnc(C2CC2)nc1)N1CCC(F)(F)CC1)c1ccccc1Cl (single isomer, unassigned; (+)) [(+)2-chloro-N-[2-(2-cyclopropylpyrimidin-5-yl)-2-(4,4-difluo]
0.48

Note down log10(IC50) recorded for Cc1ncc(C(CNC(=O)c2cccc(Cl)c2Cl)N2CCCOCC2)cn1 (stereo not shown)
1.46

Note down log10(IC50) recorded for O=C(NCC(c1ccc(Cl)cc1)N1CCC(F)(F)CC1)c1cccc(Cl)c1Cl (stereo not shown)
1.66

Note down log10(IC50) recorded for O=C(NCC(c1cnc(C(F)(F)F)nc1)N1CCC(F)(F)CC1)c1cccc(Cl)c1Cl (stereo not shown)
-0.19

====

Would you mind telling me the reported pIC50 of each entry?
target: P2X7 receptor (Homo sapiens (Human), UniProt Q99572); assay: P2X7 FLIPR assay: antagonism of BzATP response in 293 HEK cells stably expressing P2X7 receptor; settings: FLIPR fluorescence (Fluo-4), agonist BzATP, 293 HEK cells stably transfected with P2X7 receptor
Sequence (Q99572 whole entry): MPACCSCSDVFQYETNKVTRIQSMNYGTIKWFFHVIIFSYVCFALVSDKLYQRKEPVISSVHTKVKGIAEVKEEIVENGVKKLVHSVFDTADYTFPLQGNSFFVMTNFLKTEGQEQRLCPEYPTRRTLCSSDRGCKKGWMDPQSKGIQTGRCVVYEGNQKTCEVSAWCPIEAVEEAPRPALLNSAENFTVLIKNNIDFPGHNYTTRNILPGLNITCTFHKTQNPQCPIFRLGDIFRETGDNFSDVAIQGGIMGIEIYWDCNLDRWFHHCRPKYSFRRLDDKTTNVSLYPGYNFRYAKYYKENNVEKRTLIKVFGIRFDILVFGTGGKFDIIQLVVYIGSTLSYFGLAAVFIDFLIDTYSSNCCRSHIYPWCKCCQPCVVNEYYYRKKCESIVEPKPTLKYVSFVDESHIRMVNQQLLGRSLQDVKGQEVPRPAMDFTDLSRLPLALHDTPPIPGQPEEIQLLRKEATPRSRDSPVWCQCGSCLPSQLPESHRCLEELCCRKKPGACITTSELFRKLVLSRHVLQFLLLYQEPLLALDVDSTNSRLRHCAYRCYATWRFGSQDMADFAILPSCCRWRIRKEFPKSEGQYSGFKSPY
Remember the convention: pIC50 equals -log10 of concentration in molar.

Note down pIC50 recorded for O=C(NCC(c1cnc(C(F)(F)F)nc1)N1CCOCC1)c1cccc(Cl)c1Cl (stereo not shown) [2,3-dichloro-N-[2-morpholino-2-[2-(trifluoromethyl)pyrimidin]
8.09

Note down pIC50 recorded for Cc1ncc(C(CNC(=O)c2cccc(Cl)c2Cl)N2CCCCC2)cn1 (single isomer, unassigned; (+)) [(+)2,3-dichloro-N-[2-(2-methylpyrimidin-5-yl)-2-(1-piperidyl]
8.05

Note down pIC50 recorded for Cc1ncc(C(CNC(=O)c2ccc(Cl)cc2Cl)N2CCC(F)(F)CC2)cn1 (stereo not shown)
7.36

Note down pIC50 recorded for CC(C)S(=O)(=O)c1ccc(Cl)c(C(=O)NCC(c2ccc(Cl)cc2)N2CCOCC2)c1 (single isomer, unassigned; (-))
7.33

Note down pIC50 recorded for Cc1ncc(C(CNC(=O)c2cccc(F)c2Cl)N2CCOCC2)cn1 (stereo not shown)
5.92

Note down pIC50 recorded for O=C(NCC(c1ccc(C(F)(F)F)nc1)N1CCC(F)(F)CC1)c1cccc(Cl)c1Cl (stereo not shown)
8.89

Note down pIC50 recorded for Cc1ccc(C(CNC(=O)c2c(F)cccc2Cl)N2CCC(F)(F)CC2)cn1 (single isomer, unassigned; (+)) [(+)2-chloro-N-[2-(4,4-difluoro-1-piperidyl)-2-(6-methyl-3-py]
6.96

Note down pIC50 recorded for O=C(NCC(c1cnc(C(F)(F)F)nc1)N1CCC(F)(F)CC1)c1c(Cl)cccc1Cl (single isomer, unassigned; (-)) [(−)2,6-dichloro-N-[2-(4,4-difluoro-1-piperidyl)-2-[2-(triflu]
8.16

Note down pIC50 recorded for COc1cccc(C(=O)NCC(c2ccc(C(F)F)nc2)N2CCC(F)(F)CC2)c1Cl (single isomer, unassigned; (-)) [(−)2-chloro-N-[2-[6-(difluoromethyl)-3-pyridyl]-2-(4,4-diflu]
8.72

Note down pIC50 recorded for O=C(NCC(c1cnc(C2CC2)nc1)N1CCC(F)(F)CC1)c1c(F)cccc1Cl (single isomer, unassigned; (+)) [(+)2-chloro-N-[2-(2-cyclopropylpyrimidin-5-yl)-2-(4,4-difluo]
8.00

Note down pIC50 recorded for Cc1ncc(C(CNC(=O)c2c(Cl)cccc2Cl)N2CCOCC2)cn1 (stereo not shown)
6.92

Note down pIC50 recorded for CC1(C)CCN(C(CNC(=O)c2cccc(Cl)c2Cl)c2cnc(C(F)(F)F)nc2)CC1 (stereo not shown)
5.60

Note down pIC50 recorded for Cc1ncc(C(CNC(=O)c2c(F)cccc2Cl)N2CCC(F)(F)CC2)cn1 (single isomer, unassigned; (-)) [(−)2-chloro-N-[2-(4,4-difluoro-1-piperidyl)-2-(2-methylpyrim]
7.49

====

target: P2X7 receptor (Homo sapiens (Human), UniProt Q99572); assay: P2X7 FLIPR assay: antagonism of BzATP response in 293 HEK cells stably expressing P2X7 receptor; conditions: FLIPR fluorescence (Fluo-4), agonist BzATP, 293 HEK cells stably transfected with P2X7 receptor
pIC50: −log10 of the molar value.
Decision: pIC50 compared against 8; not below it gives Yes, below it gives No.

// inclusive: pIC50 at least 8? input: O=C(NCC(c1ccc(C(F)(F)F)nc1)N1CCOCC1)c1cccc(Cl)c1Cl (stereo not shown) [2,3-dichloro-N-[2-morpholino-2-[6-(trifluoromethyl)-3-pyridy]
Yes

// inclusive: pIC50 at least 8? input: Cc1ncc(C(CNC(=O)c2ccc(Cl)cc2Cl)N2CCC(Cl)CC2)cn1 (stereo not shown)
No

// inclusive: pIC50 at least 8? input: Cc1ncc(C(CNC(=O)c2cccc(Cl)c2Cl)N2CCC(F)(F)CC2)cn1 (single isomer, unassigned; (+)) [(+)2,3-dichloro-N-[2-(4,4-difluoro-1-piperidyl)-2-(2-methylp]
Yes

// inclusive: pIC50 at least 8? input: Cn1cc(C(CNC(=O)c2ccccc2Cl)N2CCC(F)(F)CC2)cn1 (single isomer, unassigned; (-)) [(−)2-chloro-N-[2-(4,4-difluoro-1-piperidyl)-2-(1-methylpyraz]
No

// inclusive: pIC50 at least 8? input: Cc1ccccc1C(=O)NCC(c1ccc(Cl)cc1)N1CCC(F)(F)CC1 (stereo not shown)
Yes

// inclusive: pIC50 at least 8? input: COc1cccc(C(=O)NCC(c2ccc(Cl)cc2)N2CCOCC2)c1Cl (single isomer, unassigned; (-)) [(−)2-chloro-N-[2-(4-chlorophenyl)-2-morpholino-ethyl]-3-meth]
Yes

// inclusive: pIC50 at least 8? input: Cc1ncc(C(CNC(=O)c2cccc(Cl)c2Cl)N2CCOCC2)cn1 (single isomer, unassigned; (-)) [(−)2,3-dichloro-N-[2-(2-methylpyrimidin-5-yl)-2-morpholino-e]
No

// inclusive: pIC50 at least 8? input: Cc1ncc(C(CNC(=O)c2c(F)cccc2Cl)N2CCOCC2)cn1 (stereo not shown)
No

// inclusive: pIC50 at least 8? input: Cc1ncc(C(CNC(=O)c2c(F)cccc2Cl)N2CCCOCC2)cn1 (stereo not shown)
No

// inclusive: pIC50 at least 8? input: O=C(NCC(c1ccc(C(F)(F)F)nc1)N1CCOCC1)c1c(F)cccc1Cl (single isomer, unassigned; (+)) [(+)2-chloro-6-fluoro-N-[2-morpholino-2-[6-(trifluoromethyl)-]
No

// inclusive: pIC50 at least 8? input: O=C(NCC(c1cnc(C(F)F)nc1)N1CCOCC1)c1ccccc1Cl (single isomer, unassigned; (+)) [(+)2-chloro-N-[2-[2-(difluoromethyl)pyrimidin-5-yl]-2-morpho]
No

The values you see were collected from patent US9415055B2.
